Kindly state growth, % of control at 10 µM for each of the entries shown.
Tested on: MCF7
Assay Comment: Growth inhibition of human MCF7 cells at 10 uM after 48 hrs by sulforhodamine B assay
Format: functional
Condition Context: MCF7, 48 h, values are per cent of control
# number only, unit % dropped from output

Respond only with growth, % of control at 10 µM recorded for `N#C/C(=C\c1c(Cl)cccc1Cl)c1ccc2c(c1)OCO2`
93.7

Return growth, % of control at 10 µM (reported value) for this compound: `N#C/C(=C\c1cc(Br)cc(Br)c1)c1ccc2c(c1)OCO2`
82.3

Quickly give me recorded growth, % of control at 10 µM for `COc1ccc(/C=C(\C#N)c2ccc3c(c2)OCO3)cc1OC`
87.2

Retrieve growth, % of control at 10 µM measured for `N#C/C(=C\c1ccsc1)c1ccc2c(c1)OCO2` and print it.
87.1

// fetch growth, % of control at 10 µM given entry `N#C/C(=C\c1ccc2c(c1)OCO2)c1ccc2c(c1)OCO2`
23.9

Report growth, % of control at 10 µM, nothing else, for this compound: `COc1ccc(/C=C(\C#N)c2ccc3c(c2)OCO3)cc1`
20.7
